Test system: Mycobacterium tuberculosis
METHOD DESCRIPTION: Inhibition of N-terminal enterokinase-cleavable His-tagged full-length Mycobacterium tuberculosis Zmp1 expressed in Escherichia coli BL21(DE3) assessed as residual enzyme activity at 50 uM using MCA-Pro-Leu-Gly-Leu-Dpa-Ala-Arg-NH2 substrate by fluorometry
Think of 20% as a floor: if Activity stands on it or above, it is 1; beneath it, -1.

Example results:
Entry CC(C)COC(=O)c1ccc(/C=C2\SC(=S)N([C@H](Cc3ccccc3)C(=O)O)C2=O)cc1 : is its Activity no less than 20%?
1

Follow-up item: O=C(O)[C@@H](Cc1ccccc1)N1C(=O)/C(=C/c2ccncc2)SC1=S
-1

Follow-up item: O=C(O)c1cccc(/C=C2\SC(=S)N([C@H](Cc3ccccc3)C(=O)O)C2=O)c1
-1

Follow-up item: COc1cccc(/C=C2\SC(=S)N([C@H](Cc3ccccc3)C(=O)O)C2=O)c1
-1

***
Entry COc1cccc(-c2csc(N[C@H](Cc3ccccc3)C(=O)O)n2)c1 : is its Activity no less than 20%?
1

---

METHOD DESCRIPTION: Cytotoxicity against African green monkey Vero cells assessed as reduction in cell viability incubated for 72 hrs by MTT assay
Assay type: cell-based
CONDITION CONTEXT: chlorocebus sabaeus
MEASUREMENT LABEL: CC50 at 72 h

Would you please look over these solved cases?
Looking for the measured CC50 at 72 h of O=C(O)c1cccc(/C=C2\SC(=S)N([C@H](Cc3ccccc3)C(=O)O)C2=O)c1 , can you help?
> 125 µg/mL

Follow-up item: O=C(O)c1ccc(/C=C2\SC(=S)N([C@@H](Cc3ccccc3)C(=O)O)C2=O)cc1
> 125 µg/mL

Proceed to the following item.
Looking for the measured CC50 at 72 h of O=C(O)c1ccc(/C=C2\SC(=S)N([C@H](Cc3ccccc3)C(=O)O)C2=O)cc1 , can you help?
> 125 µg/mL
